assay_protocol: qHTS RealTime-Glo MT Cell Viability Assay in HepG2 cells - 8 hour (AID 1224873); further: nearly all actives have a fitted effect of over 55% in size
condition_description: RealTime-Glo luminescence; series mostly up to 76.8 µM
Inconclusive results are not listed. Activity calls are given as the source filed them. The call rests on the fitted dose curve; in most records, active means well fitted cell-killing curve with a large enough effect in the repeat runs; inconclusive means weak or mixed curves; inactive means flat fitted curve, though single readings scatter.
Choose one outcome from this list and give only that: 1.0 = active, 0.0 = inactive

Prompt: Write down the call the test reported for this compound. Item: `CCc1cc(C)cc(CC)c1-c1c(OC(=O)C(C)(C)C)n2n(c1=O)CCOCC2`
Completion: 0.0

Prompt: Write down the call the test reported for this compound. Item: `C[C@@H](Oc1ccc(Cl)cc1Cl)C(=O)O`
Completion: 0.0

Prompt: Write down the call the test reported for this compound. Item: `CCCN(CCC)c1c([N+](=O)[O-])cc(S(N)(=O)=O)cc1[N+](=O)[O-]`
Completion: 1.0

Prompt: Write down the call the test reported for this compound. Item: `BrC(Br)C(Br)(Br)Br`
Completion: 0.0

Prompt: Write down the call the test reported for this compound. Item: `N#CC(Cl)Cl`
Completion: 0.0

Prompt: Write down the call the test reported for this compound. Item: `N#Cc1ccccc1N`
Completion: 0.0

Prompt: Write down the call the test reported for this compound. Item: CCSC(C)CC1CC(=O)C(/C(CC)=N/OC/C=C/Cl)=C(O)C1 (configuration not stated)
Completion: 0.0

---

assay_target: Nuclear receptor subfamily 1 group I member 3 (Homo sapiens) (UniProt Q14994)
Sequence (Q14994 whole entry, looked up): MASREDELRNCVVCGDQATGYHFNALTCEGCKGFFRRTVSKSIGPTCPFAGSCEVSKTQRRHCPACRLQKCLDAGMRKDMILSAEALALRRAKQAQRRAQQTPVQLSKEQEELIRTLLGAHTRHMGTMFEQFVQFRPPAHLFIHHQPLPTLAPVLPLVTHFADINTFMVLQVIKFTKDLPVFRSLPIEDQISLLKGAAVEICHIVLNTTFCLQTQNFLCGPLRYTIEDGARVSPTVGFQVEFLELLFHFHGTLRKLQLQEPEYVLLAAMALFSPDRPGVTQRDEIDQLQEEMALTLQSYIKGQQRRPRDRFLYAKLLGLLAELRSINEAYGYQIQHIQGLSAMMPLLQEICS
assay_protocol: qHTS assay to identify small molecule agonists of the constitutive androstane receptor (CAR) signaling pathway (AID 1224839); further: nearly all actives have a fitted effect of over 15% in size;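 on activation: HepG2 cells stably carrying human CAR and a CYP2B6 luciferase reporter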
condition_description: HepG2 hCAR CYP2B6-luciferase, agonist mode, 24 h; series mostly up to 92.4 µM
Results filed as inconclusive are left out. Activity calls are given as the source filed them. Calls follow the shape of the dose curve; as a rule, active = well fitted activation curve with a large enough effect in the repeat runs; inconclusive = weak or mixed curves; inactive = no such curve, though single readings can be large or run the other way.
Choose one outcome from this list and give only that: True for active, False for inactive

Prompt: Write down the call the test reported for this compound. Item: `Clc1ccc(Oc2ccccc2)cc1`
Completion: False

Prompt: Write down the call the test reported for this compound. Item: `Cc1cccc(OP(=O)(Oc2cccc(C)c2)Oc2cccc(C)c2)c1`
Completion: True

Prompt: Write down the call the test reported for this compound. Item: `CC(C)CBr`
Completion: False

Prompt: Write down the call the test reported for this compound. Item: `NC(=O)CCl`
Completion: False

Prompt: Write down the call the test reported for this compound. Item: `CC(C)OS(C)(=O)=O`
Completion: False

Prompt: Write down the call the test reported for this compound. Item: `Clc1ccc(-c2ccccc2)cc1`
Completion: False

Prompt: Write down the call the test reported for this compound. Item: `O=c1ssc(Cl)c1Cl`
Completion: False

Prompt: Write down the call the test reported for this compound. Item: `Cc1ccc(CCl)cc1`
Completion: False

Prompt: Write down the call the test reported for this compound. Item: `O=C(NC(=O)c1c(F)cccc1F)Nc1cc(Cl)c(OC(F)(F)C(F)F)c(Cl)c1`
Completion: True

Prompt: Write down the call the test reported for this compound. Item: COc1ccc(OC)c(CC(C)N)c1 (stereo not given)
Completion: False

---

assay_protocol: qHTS RealTime-Glo MT Cell Viability Assay in HepG2 cells - 24 hour (AID 1224867); further: nearly all actives have a fitted effect of over 50% in size
condition_description: RealTime-Glo luminescence; series mostly up to 76.8 µM
Results filed as inconclusive are left out. Calls of active or inactive are those of the source. Calls come from the whole dose curve; as a rule, active = well fitted cell-killing curve with a large enough effect in the repeat runs; inconclusive = weak or mixed curves; inactive = flat fitted curve, though single readings scatter.
Choose one outcome from this list and give only that: active, inactive

Prompt: Write down the call the test reported for this compound. Item: `CC(=O)O[C@H]1CC[C@@]2(C)C(=CC[C@@H]3[C@@H]2CC[C@]2(C)C(=O)CC[C@@H]32)C1`
Completion: inactive

Prompt: Write down the call the test reported for this compound. Item: `CC(=O)Nc1ccc2c(c1)Cc1ccccc1-2`
Completion: inactive

Prompt: Write down the call the test reported for this compound. Item: `Oc1ccc(C2(c3ccc(O)cc3)c3ccccc3-c3ccccc32)cc1`
Completion: active

Prompt: Write down the call the test reported for this compound. Item: CC1CCC(C(C)C)C(OC(=O)c2ccccc2N)C1 (stereo not given)
Completion: inactive

Prompt: Write down the call the test reported for this compound. Item: `CCOCCOC(C)=O`
Completion: inactive

From: PubChem BioAssay (Tox21)
